- Tested on: Leukozyten-Enzyme
- assay_notes: Acceleration of enzymatic cleavage of N-Tosyl-L-alanin-indoxylester by leukocytes (photometric, 360 nm)
- Type: biochemical
- assay_context: Detergens SDS 10 µg/Test; 0.1 M Tris-HCl buffer pH 8.8; 360 nm
property_label: relative Spaltungsgeschwindigkeit

CCCCCCCCCCO; 1

(P) CCCCCCCCCCCCCO
(Q) CCCCCCCCCCCO
query: Compare P and Q and name the one whose reported relative Spaltungsgeschwindigkeit is smaller. // return label of chosen record
result: P
(P: 0.75, Q: 1.85)

---

- Tested on: Leukozyten-Enzyme
- assay_notes: Acceleration of cleavage of N-Tosyl-L-alanin-3-hydroxy-5-phenylpyrrolester by leukocytes (photometric, 330 nm)
- Format: biochemical
- assay_context: Puffer Borat 0.1 M pH 8.4; Aktivator 0.125 µl bzw. 125 µg je Test; SDS 10 µg/Test; 250 µl N-Methylpyrrolidon
property_label: relative Spaltungsgeschwindigkeit

CCCCCCCCCCO [n-Decanol]; 9.0

(A) CCCCCCCCCCCCO [n-Dodecanol]
(B) CCCCCCCCCO [n-Nonanol]
(C) CCCCCCCCCCCO [n-Undecanol]
query: # desc sort on relative Spaltungsgeschwindigkeit across 3 compounds API: response body holds the labels in the requested order.
result: C, A, B
(C: 15.2, A: 9.0, B: 3.0)
